Assay: Oral bioavailability in rat (dose 60 mg/kg p.o.)
Assay type: ADME, organism-based
Settings: in vivo, read-out: Bioavailabiility
Measurement Kind: bioavailability (%)

1. CN[C@@H]1C(O)[C@H](O[C@@H]2C(O)C(O[C@H]3OC(CN)CCC3N)[C@@H](N)C[C@H]2N)OC[C@@H]1O.O=S(=O)(O)O (stereo partly specified) ... 1.4

---

Property: AUC; scope: individual compounds
Assay: Area under the curve at a concentration of 60 mg/kg perorally in rats along with control
Type: ADME, organism-based
Parameters: dose 60 mg/kg, route oral
Conditions: rat, in vivo, po, read-out: AUC 120 (converted)
Measurement Kind: AUC

1) CNC(C)C1CC[C@H](N)[C@@H](OC2[C@@H](O)[C@@H](O[C@H]3OC[C@H](O)[C@@H](NC)[C@@H]3O)[C@H](N)C[C@@H]2N)O1.O=S(=O)(O)O (stereo partly drawn) ... 1180 ng·h/mL
2) CN[C@@H]1C(O)[C@H](O[C@@H]2C(O)C(O[C@H]3OC(CN)CCC3N)[C@@H](N)C[C@H]2N)OC[C@@H]1O.O=S(=O)(O)O (stereo partly drawn) ... 1180 ng·h/mL
3) CN[C@@H]1[C@H](O)[C@H](O[C@H]2[C@H](N)C[C@H](N)C(O[C@H]3OC(C(C)N)CC[C@@H]3N)[C@H]2O)OC[C@@H]1O.O=S(=O)(O)O (stereo partly drawn) ... 1180 ng·h/mL

This collection of values is drawn from ChEMBL document CHEMBL1148488.
